All figures here come from patent US10227357B2.

# SUBJECT_OF_TEST: c-kit mutant D816V (Homo sapiens, UniProt P10721, D816V/DEL694-753)
# Construct: residues 551-934, kinase insertion domain residues 694-753 deleted; 6x-histidine (N); made in house; host or cells: E. coli Arctic Express (DE3) RIL (Stratagene)
# Sequence (P10721 with tags, fused parts or gaps DEL694-753/D816V): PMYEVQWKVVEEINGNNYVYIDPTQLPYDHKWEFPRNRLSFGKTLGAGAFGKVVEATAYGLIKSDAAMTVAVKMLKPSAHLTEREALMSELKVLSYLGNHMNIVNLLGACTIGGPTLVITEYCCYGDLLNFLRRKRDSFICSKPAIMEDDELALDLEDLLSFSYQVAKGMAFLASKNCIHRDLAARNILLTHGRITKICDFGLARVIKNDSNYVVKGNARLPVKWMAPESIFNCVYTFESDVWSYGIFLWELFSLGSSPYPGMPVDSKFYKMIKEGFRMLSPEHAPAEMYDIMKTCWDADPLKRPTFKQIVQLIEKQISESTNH
# EXPERIMENT_SUMMARY: c-Kit mutant D816V biochemical assay, AlphaScreen
# REPORTED_CONDITIONS: c-kit D816V biochemical inhibitory activity; read-out: Biochemical activity (IC50 μM) Kit D816V

COMPOUND_STRUCTURE | IC50
COc1cccc([C@H](C)NC(=O)N2CCN(c3ncnc4cc(-c5ccc(F)cc5)sc34)C[C@H]2C)c1 | 0.0001 to 1 µM
Cc1n[nH]c2ncnc(-c3ccc(NS(=O)(=O)c4cccc(F)c4)cc3)c12 | 0.0001 to 1 µM
CCCc1ccc(S(=O)(=O)Nc2ccc(-c3ncnc4[nH]c(C)cc34)cc2)cc1 | 0.0001 to 1 µM
O=S(=O)(NCC1CC1)c1ccc(-c2ncnc3[nH]c(-c4ccc(F)cc4)cc23)c(F)c1 | 1 to 10 µM
O=C(NCc1cccc(F)c1)NC1CCN(c2ncnc3[nH]ccc23)CC1 | 10 to 200 µM
CS(=O)(=O)Nc1ccc(-c2ncnc3cc4c(cc23)OCCO4)c(F)c1 | 1 to 10 µM
Cc1ccc(-c2cc3c(N4CCN(C(=O)N[C@@H](C)c5cccc(OC(F)F)c5)C(C)(C)C4)ncnc3[nH]2)cn1 | 0.0001 to 1 µM
Cc1ccc(S(=O)(=O)Nc2ccc(-c3ncnc4[nH]c(C)cc34)cc2)cc1 | 0.0001 to 1 µM
